Reference source: patent US20240124450A1

Measured pIC50 (SIK2 (Homo sapiens (Human)))
pIC50: −log10 of the molar value.
Measurement Type: pIC50

INSERT INTO measurements (molecule, numeric_result) VALUES
  ('COc1cc(-c2cnc3ccc(N(C)C)c(C#N)n23)cc(OCC2(N)CCCC2)c1C#N', 9.15),
  ('COc1cc(-c2cnc3cccc(OC)n23)cc(OCC2(N)CCCN(CC(F)(F)F)C2)c1C#N (centres unmarked) [Example 21A]', 8.96),
  ('CSc1cc(-c2cnc3ccc(C)c(C#N)n23)cc(OCC2(N)CCCC2)c1C#N', 9.22),
  ('CSc1cc(-c2cnc3cc(Cl)cc(C#N)n23)cc(OCC2(N)CCCC2)c1C#N', 9.05),
  ('CCC1CCC(N)(COc2cc(-c3cnc4cccc(OC)n34)cc(OC)c2C#N)C1 (centres unmarked)', 8.68),
  ('COc1cccc2ncc(-c3cc(OCC4(N)CCCCC4)c(C#N)c(SC)c3)n12', 8.54),
  ('CSc1cc(-c2cnc3cccc(C#N)n23)cc(OCC2(N)CCSC2)c1C#N (racemic)', 8.60),
  ('COc1cccc2ncc(-c3cc(OCC4(N)CCCC4)c(C#N)c(SC)c3)n12', 8.66);

* * *

Study System: SIK1 (Homo sapiens (Human), UniProt P57059)
Sequence (P57059 whole entry, species assumed): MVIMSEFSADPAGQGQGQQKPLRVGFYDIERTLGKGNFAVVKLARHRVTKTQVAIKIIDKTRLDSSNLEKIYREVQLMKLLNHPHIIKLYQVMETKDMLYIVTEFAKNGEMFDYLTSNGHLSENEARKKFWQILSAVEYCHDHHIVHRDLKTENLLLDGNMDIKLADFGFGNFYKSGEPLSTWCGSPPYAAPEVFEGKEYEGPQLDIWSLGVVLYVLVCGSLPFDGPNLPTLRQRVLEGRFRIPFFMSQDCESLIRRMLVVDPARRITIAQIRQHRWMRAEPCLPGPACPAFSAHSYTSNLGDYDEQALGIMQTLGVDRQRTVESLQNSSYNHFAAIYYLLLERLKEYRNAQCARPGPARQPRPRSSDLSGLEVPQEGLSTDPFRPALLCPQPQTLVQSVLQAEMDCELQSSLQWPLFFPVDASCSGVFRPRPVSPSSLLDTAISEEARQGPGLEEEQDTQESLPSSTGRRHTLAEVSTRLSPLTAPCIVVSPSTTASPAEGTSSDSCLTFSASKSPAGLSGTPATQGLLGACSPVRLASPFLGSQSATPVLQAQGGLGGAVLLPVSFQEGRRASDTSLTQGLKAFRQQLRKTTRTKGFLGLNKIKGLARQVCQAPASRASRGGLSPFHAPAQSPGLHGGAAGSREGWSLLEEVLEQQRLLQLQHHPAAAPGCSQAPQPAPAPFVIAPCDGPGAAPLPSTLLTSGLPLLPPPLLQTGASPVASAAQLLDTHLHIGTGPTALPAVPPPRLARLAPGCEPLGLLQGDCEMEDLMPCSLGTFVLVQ
pIC50: −log10 of the molar value.
Measurement Type: pIC50

INSERT INTO assay_data (compound, numeric_result) VALUES
  ('CSc1cc(-c2cnc3cccc(C#N)n23)cc(OCC2(N)CCSC2)c1C#N (racemic)', 8.48),
  ('CC[C@H]1CCC[C@@](N)(COc2cc(-c3cnc4cccc(C#N)n34)cc(SC)c2C#N)C1 (racemic)', 10.00),
  ('CSc1cc(-c2cnc3ccccn23)cc(OC[C@@]2(N)CCC(F)(F)C2)c1C#N (mixture of isomers)', 8.64),
  ('CSc1cc(-c2cnc3ccccn23)cc(OC[C@]2(N)CCSC2)c1C#N (mixture of isomers)', 8.80),
  ('CSc1cc(-c2cnc3ccccn23)cc(OC[C@@]2(N)CCC[C@@H](C(F)(F)F)C2)c1C#N (racemic) [Example 33A]', 9.22),
  ('CCC1CCC(N)(COc2cc(-c3cnc4cccc(OC)n34)cc(OC)c2C#N)C1 (centres unmarked)', 9.10),
  ('COc1cc(C#N)n2c(-c3cc(OCC4(N)CCCCC4)c(C#N)c(SC)c3)cnc2c1', 8.82),
  ('CCC1CCCC1(N)COc1cc(-c2cnc3cccc(OC)n23)cc(SC)c1C#N (centres unmarked)', 8.96);

* * *

Study System: SIK3 (Homo sapiens (Human))
Sequence (Q9Y2K2 whole entry, species assumed): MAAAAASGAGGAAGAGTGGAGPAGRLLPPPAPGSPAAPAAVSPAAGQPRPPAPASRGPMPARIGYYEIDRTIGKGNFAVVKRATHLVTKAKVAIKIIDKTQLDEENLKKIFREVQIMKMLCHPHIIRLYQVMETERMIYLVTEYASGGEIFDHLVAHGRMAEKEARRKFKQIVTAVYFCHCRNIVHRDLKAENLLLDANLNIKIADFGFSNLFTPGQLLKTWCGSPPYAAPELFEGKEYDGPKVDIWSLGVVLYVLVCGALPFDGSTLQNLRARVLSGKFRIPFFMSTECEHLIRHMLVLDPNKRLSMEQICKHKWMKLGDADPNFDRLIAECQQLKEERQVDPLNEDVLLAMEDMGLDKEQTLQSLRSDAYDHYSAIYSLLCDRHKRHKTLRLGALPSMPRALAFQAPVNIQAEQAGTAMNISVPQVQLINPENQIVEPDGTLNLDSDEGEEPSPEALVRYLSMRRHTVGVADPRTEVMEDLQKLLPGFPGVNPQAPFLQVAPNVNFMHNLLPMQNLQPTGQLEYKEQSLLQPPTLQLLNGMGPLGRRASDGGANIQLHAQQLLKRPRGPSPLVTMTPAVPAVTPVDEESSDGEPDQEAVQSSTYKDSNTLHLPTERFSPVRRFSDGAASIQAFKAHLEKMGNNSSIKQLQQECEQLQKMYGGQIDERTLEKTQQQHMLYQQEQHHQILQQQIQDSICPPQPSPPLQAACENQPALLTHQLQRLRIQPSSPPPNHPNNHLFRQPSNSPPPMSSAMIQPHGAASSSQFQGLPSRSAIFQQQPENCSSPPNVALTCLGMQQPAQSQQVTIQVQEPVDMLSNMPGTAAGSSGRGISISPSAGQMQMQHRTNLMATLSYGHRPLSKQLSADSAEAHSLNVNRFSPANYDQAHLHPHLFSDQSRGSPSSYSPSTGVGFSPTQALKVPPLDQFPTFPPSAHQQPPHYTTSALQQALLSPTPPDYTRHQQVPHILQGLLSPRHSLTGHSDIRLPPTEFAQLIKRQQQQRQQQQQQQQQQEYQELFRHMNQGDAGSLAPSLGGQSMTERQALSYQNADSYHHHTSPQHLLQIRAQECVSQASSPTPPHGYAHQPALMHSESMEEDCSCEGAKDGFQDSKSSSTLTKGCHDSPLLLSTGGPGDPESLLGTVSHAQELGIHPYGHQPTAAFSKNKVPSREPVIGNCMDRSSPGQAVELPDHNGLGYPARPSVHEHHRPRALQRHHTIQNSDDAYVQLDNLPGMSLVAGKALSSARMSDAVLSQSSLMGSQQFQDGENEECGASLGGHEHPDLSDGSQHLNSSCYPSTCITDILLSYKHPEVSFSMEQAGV
Threshold 5 nM. IC50 below it: condition met. IC50 at it or above: condition not met.

INSERT INTO assay_data (compound, label_value) VALUES
  ('CCOC(=O)c1cc(C#N)n2c(-c3cc(OCC4(N)CCCC4)c(C#N)c(SC)c3)cnc2c1 [Example 38]', 'condition met'),
  ('CNc1ccc2ncc(-c3cc(OCC4(N)CCCC4)c(C#N)c(SC)c3)n2c1C#N [Example 53]', 'condition met'),
  ('CC[C@H]1CCC[C@]1(N)COc1cc(-c2cnc3cccc(OC)n23)cc(OC)c1C#N [Example 2B]', 'condition not met'),
  ('COCC1CCC[C@@](N)(COc2cc(-c3cnc4ccccn34)cc(SC)c2C#N)C1 (mixture of isomers) [Example 31]', 'condition met'),
  ('CSc1cc(-c2cnc3cc(C)cc(C#N)n23)cc(OCC2(N)CCCC2)c1C#N [Example 41]', 'condition met'),
  ('CSc1cc(-c2cnc3ccccn23)cc(OC[C@@]2(N)CCC[C@H](C(F)(F)F)C2)c1C#N.CSc1cc(-c2cnc3ccccn23)cc(OC[C@]2(N)CCC[C@@H](C(F)(F)F)C2)c1C#N (mixture of isomers) [Example 33B]', 'condition not met'),
  ('COc1cc(C#N)n2c(-c3cc(OCC4(N)CCCC4)c(C#N)c(SC)c3)cnc2c1 [Example 50]', 'condition met');

* * *

System: IL10 release from human monocyte derived macrophages stimulated with LPS
Measurement Notes: SIK macrophage cytokine assay, increase of IL10 release
Format: cell-based
Condition Summary: 1 ng/mL LPS, 4 hours, HTRF
pEC50: −log10 of the molar value.
Measurement Type: pEC50

INSERT INTO assay_data (molecule, numeric_result) VALUES
  ('COc1cc(-c2cnc3cccc(OC)n23)cc(OCC2(N)CCCN(CC(F)(F)F)C2)c1C#N (stereo not drawn) [Example 21A]', 7.30),
  ('CSc1cc(-c2cnc3ccccn23)cc(OC[C@@]2(N)CCC[C@H](C(F)(F)F)C2)c1C#N.CSc1cc(-c2cnc3ccccn23)cc(OC[C@]2(N)CCC[C@@H](C(F)(F)F)C2)c1C#N (mixture of isomers) [Example 33B]', 6.47),
  ('COCC1CCC[C@@](N)(COc2cc(-c3cnc4ccccn34)cc(SC)c2C#N)C1 (mixture of isomers) [Example 31]', 7.44);

* * *

Study System: SIK2 (Homo sapiens (Human))
Sequence (Q9H0K1 whole entry, species assumed): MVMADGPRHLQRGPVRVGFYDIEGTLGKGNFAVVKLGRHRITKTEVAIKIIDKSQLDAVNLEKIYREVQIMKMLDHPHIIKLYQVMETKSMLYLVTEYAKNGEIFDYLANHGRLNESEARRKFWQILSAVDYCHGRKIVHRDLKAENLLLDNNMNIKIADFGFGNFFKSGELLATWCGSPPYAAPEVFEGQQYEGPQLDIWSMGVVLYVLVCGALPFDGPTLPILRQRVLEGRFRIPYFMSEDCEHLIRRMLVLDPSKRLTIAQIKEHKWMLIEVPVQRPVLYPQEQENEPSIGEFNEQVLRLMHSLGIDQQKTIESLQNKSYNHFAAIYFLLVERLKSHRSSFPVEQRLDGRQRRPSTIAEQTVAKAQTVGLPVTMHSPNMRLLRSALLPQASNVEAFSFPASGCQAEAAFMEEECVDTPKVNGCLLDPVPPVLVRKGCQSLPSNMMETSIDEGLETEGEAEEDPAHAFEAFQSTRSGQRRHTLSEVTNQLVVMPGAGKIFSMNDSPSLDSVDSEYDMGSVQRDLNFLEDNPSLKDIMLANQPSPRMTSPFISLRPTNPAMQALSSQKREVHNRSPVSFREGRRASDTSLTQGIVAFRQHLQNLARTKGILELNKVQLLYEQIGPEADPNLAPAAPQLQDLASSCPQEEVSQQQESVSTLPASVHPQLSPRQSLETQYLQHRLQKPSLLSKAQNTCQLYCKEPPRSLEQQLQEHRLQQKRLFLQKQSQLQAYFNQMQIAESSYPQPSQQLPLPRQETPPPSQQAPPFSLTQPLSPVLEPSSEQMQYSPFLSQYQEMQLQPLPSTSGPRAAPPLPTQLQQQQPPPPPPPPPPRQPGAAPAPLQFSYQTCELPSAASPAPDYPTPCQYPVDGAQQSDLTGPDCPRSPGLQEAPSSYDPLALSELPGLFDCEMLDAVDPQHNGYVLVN
Measurement Notes: Pan SIK MS IC50 enzyme assay (SIK2)
Assay type: biochemical
Condition Summary: 1 mM ATP, substrate peptide AQT0252, LCMS/MS detection
pIC50: −log10 of the molar value.
Measurement Type: pIC50

INSERT INTO results (compound, numeric_result) VALUES
  ('COCC1CCC[C@@](N)(COc2cc(-c3cnc4ccccn34)cc(SC)c2C#N)C1 (mixture of isomers) [Example 31]', 8.80),
  ('CSc1cc(-c2cnc3cc(C)cc(C#N)n23)cc(OCC2(N)CCCC2)c1C#N [Example 41]', 9.10),
  ('CNc1ccc2ncc(-c3cc(OCC4(N)CCCC4)c(C#N)c(SC)c3)n2c1C#N [Example 53]', 9.40),
  ('CC[C@H]1CCC[C@@](N)(COc2cc(-c3cnc4cccc(C#N)n34)cc(SC)c2C#N)C1 (racemic) [Example 18]', 9.22),
  ('CCOC(=O)c1cc(C#N)n2c(-c3cc(OCC4(N)CCCC4)c(C#N)c(SC)c3)cnc2c1 [Example 38]', 9.00),
  ('CSc1cc(-c2cnc3ccccn23)cc(OC[C@@]2(N)CCC[C@@H](C(F)(F)F)C2)c1C#N (racemic) [Example 33A]', 9.00),
  ('CSc1cc(-c2cnc3ccc(N)c(C#N)n23)cc(OCC2(N)CCCC2)c1C#N [Example 45]', 9.70),
  ('CC[C@@H]1CCC[C@@]1(N)COc1cc(-c2cnc3cccc(OC)n23)cc(OC)c1C#N [Example 2A]', 9.22);

* * *

Study System: UniProt:Q9Y2K2
pIC50: −log10 of the molar value.
Each record here notes measured pIC50.
Measurement Type: pIC50

INSERT INTO assay_data (compound, numeric_result) VALUES
  ('CSc1cc(-c2cnc3ccccn23)cc(OC[C@@]2(N)CCC[C@@H](C(F)(F)F)C2)c1C#N (racemic) [Example 33A]', 8.66),
  ('COc1cccc2ncc(-c3cc(OCC4(N)CCCC4)c(C#N)c(SC)c3)n12', 8.12),
  ('COc1cccc2ncc(-c3cc(OCC4(N)CCCCC4)c(C#N)c(SC)c3)n12', 7.94),
  ('CSc1cc(-c2cnc3ccc(C)c(C#N)n23)cc(OCC2(N)CCCC2)c1C#N', 8.80),
  ('CSc1cc(-c2cnc3ccc(N4CCCC4)c(C#N)n23)cc(OCC2(N)CCCC2)c1C#N', 9.05),
  ('COc1cc(-c2cnc3cccc(OC)n23)cc(OCC2(N)CCCN(CC(F)(F)F)C2)c1C#N (centres unmarked) [Example 21A]', 8.36),
  ('COc1ccc2ncc(-c3cc(OCC4(N)CCCCC4)c(C#N)c(SC)c3)n2c1C#N', 8.62),
  ('COc1ccc2ncc(-c3cc(OCC4(N)CCCC4)c(C#N)c(SC)c3)n2c1C#N', 8.96);

* * *

Study System: SIK1 (Homo sapiens (Human))
# IC50 listing for each entry below
Measurement Type: IC50 (nM)

INSERT INTO assay_data (compound, study_system, numeric_result) VALUES
  ('CC[C@@H]1CCC[C@@]1(N)COc1cc(-c2cnc3cccc(C#N)n23)cc(SC)c1C#N (racemic) [Example 7]', 'SIK1 (Homo sapiens (Human))', 0.5),
  ('COc1cc(-c2cnc3cccc(OC)n23)cc(OCC2(N)CCCN(CC(F)(F)F)C2)c1C#N (stereo not drawn) [Example 21A]', 'SIK1 (Homo sapiens (Human))', 1),
  ('CC[C@H]1CCC[C@]1(N)COc1cc(-c2cnc3cccc(OC)n23)cc(OC)c1C#N [Example 2B]', 'SIK1 (Homo sapiens (Human))', 12);
